Entries and their measured IC50 follow.
- target of assay: KRAS WT (Homo sapiens, UniProt P01116+P62937)
- Sequence (P01116 1-169 isoform P01116-2 limits assumed): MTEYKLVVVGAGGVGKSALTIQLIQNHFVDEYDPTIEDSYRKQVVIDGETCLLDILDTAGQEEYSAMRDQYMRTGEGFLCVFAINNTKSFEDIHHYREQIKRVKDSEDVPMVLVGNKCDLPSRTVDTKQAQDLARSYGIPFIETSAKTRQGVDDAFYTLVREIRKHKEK
- Sequence (P62937 whole entry): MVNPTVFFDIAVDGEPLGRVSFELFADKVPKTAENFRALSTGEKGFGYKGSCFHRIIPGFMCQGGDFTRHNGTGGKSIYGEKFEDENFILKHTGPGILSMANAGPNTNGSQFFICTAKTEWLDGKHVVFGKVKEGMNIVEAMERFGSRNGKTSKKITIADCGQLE
- protocol notes: Disruption of BRAF RBD interaction with Ras (FRET / MOA assay, with Cyclophilin A)
- Assay type: biochemical
- condition label: KRAS WT; read-out: KRAS WT FRET data IC50

compound | result
C=CC(=O)N1CC[C@@]2(CCN2C(=O)N(C)[C@H](C(=O)N[C@H]2Cc3nc(cs3)-c3ccc4c(c3)c(c(-c3cccnc3[C@H](C)OC)n4CC)CC(C)(C)COC(=O)C3CCCN(N3)C2=O)N(C)C)C1 (single isomer, unassigned) [Example A661] | 0.1 to 1 µM

// next item, IC50 requested
Incoming: Report IC50 for CCn1c(-c2cccnc2[C@H](C)OC)c2c3cc(ccc31)-c1csc(n1)C[C@H](NC(=O)[C@H](C(C)C)N(C)C(=O)[C@@H]1C[C@@H]1C)C(=O)N1CCC[C@H](N1)C(=O)OCC(C)(C)C2 [Example A239]
Outgoing: 1 to 10 µM
